FYI, the data here is from patent US20240252527A9.

# Test system: 229E
# Method: 229E MRC5 CPE assay (cytopathic experiment)
# Assay type: cell-based, coronavirus 229E (HCoV-229E)
# Setup Conditions: Human coronavirus 229E, MRC5, 72 h, read-out: 229E MRC5 CPE assay (μM) EC90
Recorded Metric: EC90

Previously resolved entries follow.
Compound	Experimental Result
N#C[C@@]1(c2ccc3c(N)ncnn23)OC2CO[P@@](=O)(OCOC(=O)c3cccnc3)O[C@H]2[C@H]1O (some centres unmarked)	> 0.5 µM
CCCN(CCC)S(=O)(=O)c1ccc(C(=O)OCO[P@](=O)(N[C@@H](C)C(=O)OCC(CC)CC)OC[C@H]2O[C@@](C#N)(c3ccc4c(N)ncnn34)[C@H](O)[C@@H]2O)cc1	> 0.5 µM
CCCC(CCC)C(=O)OCO[P@@](=O)(N[C@@H](C)C(=O)OC)OC[C@H]1O[C@@](C#N)(c2ccc3c(N)ncnn23)[C@H](O)[C@@H]1O	< 0.1 µM
CCCN(CCC)S(=O)(=O)c1ccc(C(=O)OCO[P@]2(=O)OCC3O[C@@](C#N)(c4ccc5c(N)ncnn45)[C@H](O)[C@@H]3O2)cc1 (some centres unmarked)	> 0.5 µM
CCCC(CCC)C(=O)OCO[P@@](=O)(N[C@@H](C)C(=O)OCC)OC[C@H]1O[C@@](C#N)(c2ccc3c(N)ncnn23)[C@H](O)[C@@H]1O	< 0.1 µM
CCC(CC)COC(=O)[C@H](C)NP(=O)(OC[C@H]1O[C@@](C#N)(c2ccc3c(N)ncnn23)[C@H](O)[C@@H]1O)ONC(=N)c1ccccc1 (some centres unmarked)	> 0.5 µM

Request the reported EC90 associated with CCCC(CCC)C(=O)OCO[P@@]1(=O)OC[C@H]2O[C@@](C#N)(c3ccc4c(N)ncnn34)[C@H](O)[C@@H]2O1
< 0.1 µM

Request the reported EC90 associated with CCC(CC)COC(=O)[C@H](C)N[P@@](=O)(OCOC(=O)OC(C)C)OC[C@H]1O[C@@](C#N)(c2ccc3c(N)ncnn23)[C@H](O)[C@@H]1O
0.1 to 0.5 µM

Request the reported EC90 associated with N#C[C@@]1(c2ccc3c(N)ncnn23)O[C@@H]2COP(=O)(O)O[C@H]2[C@H]1O
> 0.5 µM

Request the reported EC90 associated with CCCC(CCC)C(=O)OCO[P@](=O)(N[C@@H](C)C(=O)OCC)OC[C@H]1O[C@@](C#N)(c2ccc3c(N)ncnn23)[C@H](O)[C@@H]1O
0.1 to 0.5 µM

Request the reported EC90 associated with CCC(CC)COC(=O)[C@H](C)N[P@](=O)(OCCN(CC)CCCC(C)Nc1ccnc2cc(Cl)ccc12)OC[C@H]1O[C@@](C#N)(c2ccc3c(N)ncnn23)[C@H](O)[C@@H]1O (some centres unmarked)
> 0.5 µM
